Source listed as ChEMBL document CHEMBL1137802.

# assay overview: Antioxidant activity against Cu2+-induced lipid peroxidation in human plasma LDL preincubated for 1 hr before Cu2+ challenge
# Type: functional, cell-free
Activity calls are given as the source filed them. No cut-off for these calls is given here.
value type: Activity

{"columns": ["compound", "Activity"],
 "data": [
  ["O=C(O)c1ccccc1O", "inactive"],
  ["O=C(/C=C/c1ccc(O)c(O)c1)O[C@@H]1C[C@](O)(C(=O)O)C[C@@H](O)[C@H]1O", "156 µM/L"],
  ["O=C(O)/C=C/c1ccc(O)c(O)c1", "54 µM/L"],
  ["Oc1cc(O)c2c(c1)O[C@H](c1ccc(O)c(O)c1)[C@H](O)C2", "37.1 µmol/L"],
  ["COc1cc(/C=C/C(=O)O)ccc1O", "8.5 µM/L"]
]}

// `O=C(O)/C=C/c1ccc(O)cc1` : Activity value = 0.6 µM/L

For `CC(C)(Sc1cc(C(C)(C)C)c(O)c(C(C)(C)C)c1)Sc1cc(C(C)(C)C)c(O)c(C(C)(C)C)c1` the compound record lists Activity as 5.8 µM/L

For this compound ( `COc1cc(/C=C/C(=O)O)cc(OC)c1O` ), measured Activity is 47.4 µM/L

The reported value for Oc1cc(O)c2c(c1)OC(c1ccc(O)c(O)c1)C(O)C2 (configuration not stated) in terms of Activity is 34.6 µM/L

So, `CC(=O)Oc1ccccc1C(=O)O` ? Its Activity was inactive

// sample `O=C(/C=C/c1ccc(O)c(O)c1)O[C@H](Cc1ccc(O)c(O)c1)C(=O)O` , its Activity was 150 µM/L

In plain terms, O=C(/C=C/c1ccc(O)c(O)c1)OC(C(=O)O)C(O)C(=O)O (configuration not stated) has a documented Activity of 125 µM/L
